test: physchem; assay type: physicochemical; details: simulated gastric solution, pH 4
Attribute Measured: remaining at 45 s (%)

>>> recorded_value("CN(CC(=O)O)C(=N)N")
75

* * *

assay: physchem; type: physicochemical; settings: simulated gastric solution, pH 4
Attribute Measured: remaining at 105 s

>>> recorded_value("CN(CC(=O)O)C(=N)N")
"38%"

* * *

experiment: physchem; format: physicochemical; details: simulated gastric solution, pH 4
Attribute Measured: remaining at 2 min

>>> recorded_value("CN(CC(=O)O)C(=N)N")
"31%"

* * *

assay: Digestion simulation in stomacher at pH 3 for 60 minutes, total creatine and creatinine levels; type: physicochemical; conditions: acidified fluid; 500 mg elemental creatine, stomacher at pH 3, 60 minutes; read-out: Total conversion to Creatinine after 60 minutes of digestion
Attribute Measured: degraded at 1 h (%)

>>> recorded_value("CN(CC(=O)O)C(=N)N.O [Creatine Powder, creatine monohydrate]")
100
